System: SF-539 CNS
Experiment: NCI-60 one-dose screen, 48 h (100 = growth as untreated, 0 = no growth, -100 = all killed)
Conditions: 10 µM unless noted
Protocol: Cells are grown in 96 well plates and exposed to the test compound for 48 hours. Compounds are tested at a single concentration, which is 10^-5 M for most compounds. The reported endpoint is percent growth (GI% or GIPRCNT), where numbers from 0 - 100% represent growth inhibition, and numbers from -100% - 0 represent cell death. For example, a value of 40 represents 60% growth inhibition. A value of 0 means no net growth occurred over the course of the experiment. […]
About 83,000 compounds went through this panel and 20% of them were active in at least one assay; those are over-represented in the sample as a whole. Activity calls are given as the source filed them. The calls were made as follows: active = growth percent below 10; inactive = the rest.
parameter: growth

compound	result
CC1SC(c2cccc(Oc3ccccc3)c2)N(CCc2cccs2)C1=O (stereo not drawn)	-82.3% (active)
COC(=O)/C=C1/CCC2C3CCC4=CC(=O)C(Br)CC4(C)C3C(=O)CC12C (stereo not drawn)	97.4% (inactive)
CCOC(=O)c1c(Cl)c2c(n1Cc1cc(OC)cc(OC)c1)-c1oncc1CCC2	7.36% (active)
CC(=O)N(CC(O)CO)c1c(I)c(C(=O)NCCO)c(I)c(C(=O)NCC(O)CO)c1I (stereo not drawn)	100% (inactive)
COc1ccc(NC(=O)COc2ccccc2)c(C(N)=O)c1	-46.8% (active)
C=C[C@H]1C[C@@H]2C[C@@H]3[C@H]4C/C=C\C(=O)NCCCC5NC(=O)C(=C(O)/C=C/[C@@H]4CC(=O)[C@H]3[C@@H]2[C@H]1C)C5=O (stereo partly drawn)	-81.1% (active)
COc1ccc(/C=C2\SC(=O)N(CN3CCN(c4cc5c(cc4F)c(=O)c(C(=O)O)cn5C4CC4)CC3)C2=O)cc1	107% (inactive)

Next, consider the following compound.
Query :: Query (compound): COC(=O)[C@@H]1CCCN1C(=O)[C@@H]1CCCN1C(=O)[C@@H](Cc1c[nH]c2ccccc12)NC(=S)Nc1cc(C(F)(F)F)cc(C(F)(F)F)c1 ; field requested: growth
Result :: 89.4% (inactive)

----------
System: TK-10 renal
Test: NCI-60 one-dose screen, 48 h (100 = growth as untreated, 0 = no growth, -100 = all killed)
Conditions: 10 µM unless noted
The panel holds about 83,000 compounds, 20% with a hit somewhere; the sample as a whole holds those more often.
Binarize growth at 80%; below is Criterion met, at or above is Criterion not met.

Record excerpt, results attached:
compound	answer_label
O=C1c2ccccc2-c2nnc(-c3ccc(Br)cc3)cc21	Criterion not met
COc1c(O)c2c3c(c1OC)-c1ccccc1CC3N(S(=O)(=O)c1ccc(C)cc1)CC2 (stereo not drawn)	Criterion not met
Oc1cccc(Nc2nc(-c3ccccn3)cs2)c1	Criterion not met
CN1CCN(C)c2cncc(Br)c2C1=O	Criterion not met
Cc1ccc(NS(=O)(=O)c2ccc(-c3cnc(C4CC4)o3)cc2)cc1	Criterion met
COc1ccc(/C=C/C(=O)N2CCC(O)CC2)cc1OC1CCCC1	Criterion not met
CC(C)N1CCN(c2ccc(OC[C@H]3CO[C@](Cn4cncn4)(c4ccc(Cl)cc4Cl)O3)cc2)CC1	Criterion not met
COc1cc(/C=C/C(=O)C(=Cc2ccc(F)c(F)c2)C(=O)/C=C/c2ccc(O)c(OC)c2)ccc1O	Criterion met
Clc1cccc(Cl)c1Nc1ccc2nnc(-c3ccncc3)n2n1	Criterion not met
CCCCCCCCCCCCCCNc1nc(CO)ncc1-c1ccc(C(F)(F)F)cc1	Criterion not met

Query :: Lab note: growth threshold 80%. Does this compound come in strictly under it? Oc1ccc(Cl)cc1CNc1nc2ccccc2[nH]1
Result :: Criterion not met

Query :: What do we get for COc1cccc(C2C3=C(COC3=O)N(CCO)c3cc4c(cc32)OCO4)c1 (stereo not drawn) ?
Result :: Criterion met

Query :: What do we get for CC1SC(c2ccc(Cl)cc2)N(CCc2cccs2)C1=O (stereo not drawn) ?
Result :: Criterion met

Query :: What do we get for Cc1cc(Cl)c2c(Cl)ccc(Cl)c2n1 ?
Result :: Criterion not met

Query :: What do we get for O=C(N/N=C/c1ccc2c(c1)OCO2)c1cnn2c1NC(c1ccccc1)C2 (stereo not drawn) ?
Result :: Criterion met

Query :: What do we get for CC1CCCCN1S(=O)(=O)c1ccc(CN=C=S)cc1 (stereo not drawn) ?
Result :: Criterion met

Query :: What do we get for Nc1nc(N)c(N=Nc2c(Br)cc(S(N)(=O)=O)cc2Br)c(N)n1 ?
Result :: Criterion not met

Query :: What do we get for COc1ccccc1/C=C/C(=O)/C=C/c1ccccc1O ?
Result :: Criterion met

Query :: What do we get for CCOC(=O)c1sc(NC(=O)CN2CCC(Cc3ccccc3)CC2)nc1C ?
Result :: Criterion not met

Query :: What do we get for COc1ccc(S(=O)(=O)ON=C2C=C(C)C(=O)C(C)=C2)cc1 ?
Result :: Criterion not met

Query :: What do we get for Cn1cc(C(=O)NCCC(=N)N)cc1NC(=O)CN=C(N)N ?
Result :: Criterion not met

Query :: What do we get for CCCCCCCC/C=C\CCCCCCCCOc1cccc(CC(=O)NCC[N+]2(C)CCCC2)c1 ?
Result :: Criterion not met

----------
System: UACC-257 melanoma
Experiment: NCI-60 one-dose screen, 48 h (100 = growth as untreated, 0 = no growth, -100 = all killed)
Conditions: 10 µM unless noted
Compounds without any hit were thinned out: in the full panel of roughly 83,000, 20% have a hit. Activity calls are given as the source filed them. The calls were made as follows: active = growth percent below 10; inactive = the rest.
growth: recorded values

Reference set, count: 5
NC(=O)c1cc(Cl)ccc1NC(=O)COc1ccccc1 84.4% (inactive)
O=[N+]([O-])c1cc2c(cc1Br)-c1ccccc1C2 98.8% (inactive)
COc1cc2nc(N3CCC[C@H](NC4=CC(=O)c5ccccc5C4=O)C3)nc(N)c2cc1OC 97.7% (inactive)
COc1cc(-c2nc(SC(C)C)nc(Nc3ccccc3C)c2C#N)cc(OC)c1OC 113% (inactive)
O=C1c2[nH]cc(CN[C@@H]3CCCN3)c2C(=O)c2c1c(O)c1ccccc1c2O -64.9% (active)

Next, consider the following compound.
Query :: Query (compound): CC(=O)OC[C@]1(C)C=C2C(=O)[C@](C)(O)C3(CC3)C(C)=C2[C@H]1OC(C)=O ; field requested: growth
Result :: 106% (inactive)

----------
System: IGROV1 ovarian
Assay: NCI-60 one-dose screen, 48 h (100 = growth as untreated, 0 = no growth, -100 = all killed)
Settings: 10 µM unless noted
About 83,000 compounds went through this panel and 20% of them were active in at least one assay; those are over-represented in the sample as a whole.
Binarize growth at 80%; below is 1, at or above is -1.

molecule	answer_label
CNc1ccc(Br)cc1-c1n[nH]c(=O)[nH]c1=O	-1
COc1ccc(OC)c(/C=C2\Oc3cc(O)ccc3C2=O)c1	-1
COc1ccc(NC(=O)COc2ccccc2)c(C(N)=O)c1	1

Query :: Lab note: growth threshold 80%. Does this molecule come in strictly under it? COc1ccccc1CNCCCCCCCCCCCCN1C(=O)c2ccc3c4c(ccc(c24)C1=O)C(=O)N(CCCCCCCCCCCCNCc1ccccc1OC)C3=O
Result :: -1

Query :: What do we get for CCCOC(=O)c1ccc2c(c1)[N+](=O)C(C(=O)c1ccccc1)=C(C(F)(F)F)[N+]2=O ?
Result :: 1

----------
Test system: HS 578T breast
Experiment: NCI-60 one-dose screen, 48 h
Conditions: 10 µM unless noted
Compounds without any hit were thinned out: in the full panel of roughly 83,000, 20% have a hit. Activity calls are given as the source filed them. How the source made its calls: active means growth percent below 10; inactive means the rest.
Valid outcomes are listed here; reply with one: active, inactive

Record excerpt, results attached:
CCN1CCN(c2ccc(Nc3ncc4ccc5ncn(C(C)C)c5c4n3)nc2)CC1 active
C[C@@H](Oc1cc(-c2cnn(C3CC4(CCNCC4)C3)c2)cnc1N)c1c(F)ccc(Cl)c1Cl inactive
C[C@]1(CO)C[C@@H](O)C[C@]2(C)[C@@H]1CC[C@@]13C[C@@H]4[C@@H](C[C@H]12)[C@]4(C)C3 inactive

Below: the item to evaluate.
Query :: I'd appreciate the recorded outcome for Clc1ccc(Nc2nc(Nc3ccccc3)nc(Nc3ccc(-c4cc(-c5ccc(Cl)cc5)on4)cc3)n2)cc1 from this test.
Result :: inactive

----------
Tested on: A549/ATCC NSCLC
Assay: NCI-60 one-dose screen, 48 h (100 = growth as untreated, 0 = no growth, -100 = all killed)
Conditions: 10 µM unless noted
About 83,000 compounds went through this panel and 20% of them were active in at least one assay; those are over-represented in the sample as a whole.
// label = condition met if growth is not less than 20%, otherwise condition not met

Record excerpt, results attached:
compound	answer_label
O=C1Nc2ccc(Cl)cc2/C1=N/N=C(c1ccccc1)c1ccccc1	condition met
Nc1nc2c(s1)CCc1c-2c(Br)n(Cc2ccccc2)c1Br	condition met
Cc1ccc(S(=O)(=O)N2CCc3ccc(O)c4c3C2Cc2ccc3c(c2-4)OCO3)cc1 (stereo not given)	condition not met
CCC(=O)Nc1nnc(Cc2ccc(OC)c(OC)c2)s1	condition not met

Query :: Could you verify whether the entry COC(=O)[C@@]12CC[C@@H](C)[C@]3(C[C@@H](c4ccoc4)OC3=O)[C@H]1CC[C@@H]1O[C@@]12C shows growth of no less than 20%?
Result :: condition met
